As shown below, each of these compounds has a reported pKd value.
# ASSAY SYSTEM: MCL1 (Homo sapiens)
# Sequence (Q07820 whole entry): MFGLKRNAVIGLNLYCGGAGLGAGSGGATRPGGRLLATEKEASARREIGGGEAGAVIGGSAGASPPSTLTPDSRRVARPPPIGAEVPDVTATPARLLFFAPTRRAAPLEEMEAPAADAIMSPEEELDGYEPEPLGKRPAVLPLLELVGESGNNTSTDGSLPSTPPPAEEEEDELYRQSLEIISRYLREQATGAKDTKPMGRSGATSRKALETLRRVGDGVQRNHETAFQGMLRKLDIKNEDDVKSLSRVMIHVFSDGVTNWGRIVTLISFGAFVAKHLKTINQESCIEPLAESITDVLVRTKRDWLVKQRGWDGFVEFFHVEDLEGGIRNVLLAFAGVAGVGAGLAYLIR
# ASSAY SUMMARY: MCL1 affinity assay (competition binding, qPCR readout)
# TEST CONTEXT: recombinant MCL1, 11-point 3-fold dilution series
pKd: −log10 of the molar value.
MEASUREMENT TYPE: pKd

INSERT INTO assay_data (compound, meas_value) VALUES
  ('COc1ccccc1-c1nccc(COc2ccccc2C[C@@H](Oc2nsc3cnc(-c4ccc(F)cc4)c(-c4ccc(OCCC5CCN(C)CC5)c(Cl)c4C)c23)C(=O)O)n1 (atropisomer, axis not shown)', '≥ 7.00'),
  ('Cc1c(-c2c(-c3cccc4c3NC(=O)C4)ncc3snc(O[C@H](Cc4ccccc4OCc4ccnn4CC(F)(F)F)C(=O)O)c23)ccc(OCCN2CCN(C)CC2)c1Cl (atropisomer, axis not shown)', '< 5.82'),
  ('Cc1c(-c2c(-c3ccccn3)ncc3snc(O[C@H](Cc4ccccc4OCc4ccnn4CC(F)(F)F)C(=O)O)c23)ccc(OCCN2CCN(C)CC2)c1Cl (atropisomer, axis not shown)', '5.82 to 6.30'),
  ('Cc1c(Cl)c2cc(Cl)cnc2n1-c1cc(CC2CCC2)c2c(O[C@H](Cc3ccccc3OCc3ccnn3CC(F)(F)F)C(=O)O)nsc2c1', '< 5.82'),
  ('COc1ccccc1-c1nccc(COc2ccccc2C[C@@H](Oc2nsc3cnc(-c4cnc(C5CC5)o4)c(-c4ccc(OCCN5CCN(C)CC5)c(Cl)c4C)c23)C(=O)O)n1 (atropisomer, axis not shown)', '≥ 7.00'),
  ('Cc1c(-c2c(-c3cccc(F)c3)ncc3snc(O[C@H](Cc4ccccc4)C(=O)O)c23)ccc(OCCN2CCN(C)CC2)c1Cl (atropisomer, axis not shown)', '5.82 to 6.30'),
  ('Cc1c(-c2cc(-c3nn(C)c4cc(Cl)ccc34)cc3snc(O[C@H](Cc4ccccc4OCc4ccnn4CC(F)(F)F)C(=O)O)c23)ccc(OCCN2CCN(C)CC2)c1Cl', '< 5.82'),
  ('Cc1c(-c2c(C3CCC3)ncc3snc(O[C@H](Cc4ccccc4OCc4ccnn4CC(F)(F)F)C(=O)O)c23)ccc(OCCN2CCN(C)CC2)c1Cl (atropisomer, axis not shown)', '≥ 7.00'),
  ('COc1cccc(-c2ncc3snc(O[C@H](Cc4ccccc4OCc4ccnc(-c5ccccc5OC)n4)C(=O)O)c3c2-c2ccc(OCCN3CCN(C)CC3)c(Cl)c2C)c1 (atropisomer, axis not shown)', '5.82 to 6.30'),
  ('COc1cccc(-c2ncc3snc(O[C@H](Cc4ccccc4OCc4ccnc(N5CCCC(C)(C)C5)n4)C(=O)O)c3c2-c2ccc(OCCN3CCN(C)CC3)c(Cl)c2C)c1 (atropisomer, axis not shown)', '5.82 to 6.30');

----------
# Test system: drug-resistant cell lines of Table 3
# ASSAY SUMMARY: Cell line growth retardation assay, resistant cohort
# Format: cell-based, Human
# TEST CONTEXT: Homo sapiens, 144 h; arithmetic mean of IC50s over the resistant cohort of Table 3, 6 days growth; read-out: AvgRes IC50
# Method: Cells were seeded at densities of 1,000-5,000 cells per well in 48-well tissue culture plates. After a 24 h rest period, cells were treated with compound at 10 μM, 1 μM, […], 0.08 μM, 0.016 μM, and 0.0032 μM. […] Prior to treatment, cells were counted and this count was used as a baseline for the calculation of growth inhibition. The cells were grown in the presence of compounds for 6 days and were counted on day 6. […]
MEASUREMENT TYPE: IC50

INSERT INTO assay_data (molecule, meas_value) VALUES
  ('CC(=O)N1CCN(c2ccc(-c3nccc(COc4ccccc4C[C@@H](Oc4nsc5cnc(C6CCC6)c(-c6ccc(OCCN7CCN(C)CC7)c(Cl)c6C)c45)C(=O)O)n3)cc2)CC1 (atropisomer, axis not shown)', '> 5 µM'),
  ('COc1ccccc1-c1nccc(COc2ccccc2C[C@@H](Oc2nsc3cnc(-c4cccc(F)c4)c(-c4ccc(OCCN(C)C)c(Cl)c4C)c23)C(=O)O)n1 (atropisomer, axis not shown)', '> 5 µM');

----------
As shown below, each of these molecules has a reported pKd value.
# ASSAY SYSTEM: MCL1 (Homo sapiens)
# ASSAY SUMMARY: MCL1 affinity assay (competition binding, qPCR readout)
# TEST CONTEXT: recombinant MCL1, 11-point 3-fold dilution series
# Method: Recombinant MCL1, BCL2 and BCXL proteins were prepared in either an E. coli host derived from the BL21 strain or in HEK-293 cells. The recombinant proteins were subsequently tagged with DNA for qPCR detection. […] The recombinant protein concentration in the eluates was measured by qPCR. Kds were determined using an 11-point 3-fold compound dilution series with three DMSO control points.
pKd: −log10 of the molar value.
MEASUREMENT TYPE: pKd

INSERT INTO assay_data (molecule, meas_value) VALUES
  ('COc1cc(-c2ncc3snc(O[C@H](Cc4ccccc4OCc4ccnc(-c5ccccc5OC)n4)C(=O)O)c3c2-c2ccc(OCCN3CCN(C)CC3)c(Cl)c2C)ccn1 (atropisomer, axis not shown) [Compound 33]', '≥ 7.00'),
  ('COc1cccc(-c2ncc3snc(O[C@H](Cc4ccccc4OCc4ccnc(-c5ccccc5OC(F)F)n4)C(=O)O)c3c2-c2ccc(OCCN3CCN(C)CC3)c(Cl)c2C)c1 (atropisomer, axis not shown) [Compound 66]', '≥ 7.00'),
  ('COc1cccc(-c2ncc3snc(O[C@H](Cc4ccccc4OCc4ccnc(-c5ccccc5OC)n4)C(=O)O)c3c2-c2ccc(OC)c(Cl)c2C)c1 (atropisomer, axis not shown) [Compound 51]', '≥ 7.00'),
  ('COc1cccc(-c2ncc3snc(O[C@H](Cc4ccccc4OCc4ccnc(N5CCC(OC)CC5)n4)C(=O)O)c3c2-c2ccc(OCCN3CCN(C)CC3)c(Cl)c2C)c1 (atropisomer, axis not shown) [Compound 70]', '6.30 to 7.00'),
  ('COc1ncccc1-c1nccc(COc2ccccc2C[C@@H](Oc2nsc3cnc(-c4cccc(F)c4)c(-c4ccc(OCCN5CCN(C)CC5)c(Cl)c4C)c23)C(=O)O)n1 (atropisomer, axis not shown) [Compound 64]', '6.30 to 7.00'),
  ('Cc1c(-c2c(-c3cn(C)c4ccccc34)ncc3snc(O[C@H](Cc4ccccc4OCc4ccnn4CC(F)(F)F)C(=O)O)c23)ccc(OCCN2CCN(C)CC2)c1Cl (atropisomer, axis not shown) [Compound 20]', '5.82 to 6.30'),
  ('Cc1c(-c2c(-c3ccc(F)cc3)ncc3snc(O[C@H](Cc4ccccc4OCc4ccnn4CC(F)(F)F)C(=O)O)c23)ccc(OCCN2CCN(C)CC2)c1Cl (single isomer, unassigned) [Compound 6]', '6.30 to 7.00'),
  ('Cc1c(-c2c(-c3ccc(F)s3)ncc3snc(O[C@H](Cc4ccccc4OCc4ccnn4CC(F)(F)F)C(=O)O)c23)ccc(OCCN2CCN(C)CC2)c1Cl (single isomer, unassigned) [Compound 1]', '< 5.82'),
  ('COc1cccc(-c2ncc3snc(O[C@H](Cc4ccccc4OCc4ccnc(-c5ccccc5OC)n4)C(=O)O)c3c2-c2ccc(OCCC3CCN(C)CC3)c(Cl)c2C)c1 (atropisomer, axis not shown) [Compound 45]', '≥ 7.00'),
  ('Cc1c(-c2c(C3CCC3)ncc3snc(O[C@H](Cc4ccccc4OCc4ccnc(-c5cccc(S(C)(=O)=O)c5)n4)C(=O)O)c23)ccc(OCCN2CCN(C)CC2)c1Cl (atropisomer, axis not shown) [Compound 118]', '≥ 7.00'),
  ('Cc1c(-c2c(C3CCC3)ncc3snc(O[C@H](Cc4ccccc4OCc4ccnc(C5CCC(F)(F)CC5)n4)C(=O)O)c23)ccc(OCCN2CCN(C)CC2)c1Cl (atropisomer, axis not shown) [Compound 110]', '≥ 7.00'),
  ('CCn1ccc(-c2ncc3snc(O[C@H](Cc4ccccc4OCc4ccnc(-c5ccccc5OC)n4)C(=O)O)c3c2-c2ccc(OCCN3CCN(C)CC3)c(Cl)c2C)n1 (atropisomer, axis not shown) [Compound 76]', '5.82 to 6.30'),
  ('Cc1c(-c2c(-c3cccc4cc[nH]c34)ncc3snc(O[C@H](Cc4ccccc4OCc4ccnn4CC(F)(F)F)C(=O)O)c23)ccc(OCCN2CCN(C)CC2)c1Cl (atropisomer, axis not shown) [Compound 18]', '< 5.82'),
  ('COc1ccccc1-c1nccc(COc2ccccc2C[C@@H](Oc2nsc3cnc(-c4ccc(F)c(F)c4)c(-c4ccc(OCCN5CCN(C)CC5)c(Cl)c4C)c23)C(=O)O)n1 (atropisomer, axis not shown) [Compound 85]', '≥ 7.00'),
  ('COc1cccc(-c2ncc3snc(O[C@H](Cc4ccccc4OCc4ccnc(-c5ccccc5OC)n4)C(=O)O)c3c2-c2ccc(O)c(Cl)c2C)c1 (atropisomer, axis not shown) [Compound 41]', '≥ 7.00'),
  ('Cc1c(-c2cc(-n3c(C)c(Cl)c4cc(Cl)cnc43)cc3snc(O[C@H](Cc4ccccc4OCc4ccnn4CC(F)(F)F)C(=O)O)c23)ccc(OCCN2CCN(C)CC2)c1Cl [Compound 100]', '5.82 to 6.30'),
  ('COc1cccc(-c2ncc3snc(O[C@H](Cc4ccccc4OCc4ccnc(-c5ccccc5OC)n4)C(=O)O)c3c2-c2ccc(OCCCN(C)C)c(Cl)c2C)c1 (atropisomer, axis not shown) [Compound 47]', '≥ 7.00'),
  ('COc1ccccc1-c1nccc(COc2ccccc2C[C@@H](Oc2nsc3cnc(-c4ccccn4)c(-c4ccc(OCCN5CCN(C)CC5)c(Cl)c4C)c23)C(=O)O)n1 (atropisomer, axis not shown) [Compound 53]', '≥ 7.00'),
  ('COc1cccc(-c2ncc3snc(O[C@H](Cc4ccccc4OCc4ccnc(N5CCCC(F)(F)C5)n4)C(=O)O)c3c2-c2ccc(OCCN3CCN(C)CC3)c(Cl)c2C)c1 (atropisomer, axis not shown) [Compound 61]', '6.30 to 7.00');
